Tested on: Phakopsora pachyrhizi
measurement-notes: Test A: test suspension sprayed on soybean seedlings one day before inoculation with Phakopsora pachyrhizi spores (Asian soybean rust), visual disease rating
Type: in vivo
measurement-setup: 10 ppm test suspension, 100 = 100% disease control, 0 = no control
Measured Test A rating (disease control) by item
Your reply should be a number followed by the unit it is expressed in.

Known Test A rating (disease control) results, listed for orientation:
CCO/C(=C\Oc1ccc(Cn2nccc2C(=O)OC(C)(C)C)cc1)C(F)(F)F = 0%
CCOC(=O)c1cnn(CCCc2ccc(OCC(O)(O)C(F)(F)F)cc2)c1 = 87%
CCO/C(=C\Oc1ccc(Cn2cnc(C(=O)OC)n2)cc1)C(F)(F)F = 98%

Kindly consider the entry below.
*Q* What Test A rating (disease control) appears in the records for this compound with Phakopsora pachyrhizi? C#CCOC(=O)c1cnn(Cc2ccc(OCC(O)(O)C(F)(F)F)cc2)c1
*A* 97%

###

Measured Test A rating (disease control) by item
Tested on: Phakopsora pachyrhizi
measurement-notes: Test A: test suspension sprayed on soybean seedlings one day before inoculation with Phakopsora pachyrhizi spores (Asian soybean rust), visual disease rating
Format: in vivo
measurement-setup: 10 ppm test suspension, 100 = 100% disease control, 0 = no control
Excerpt: General protocol for preparing test suspensions for Tests A-C: the test compounds were first dissolved in acetone in an amount equal to 3% of the final volume and then suspended at the desired concentration (in ppm) in acetone and purified water (50/50 mix by volume) containing 250 ppm of the surfactant PEG400 (polyhydric alcohol esters). The resulting test suspensions were then used in Tests A-C. The test solution was sprayed to the point of run-off on soybean seedlings. […]
Your reply should be a number followed by the unit it is expressed in.

CCO/C(=C\Oc1ccc(C#N)cc1)C(F)(F)F [compound 144] = 78%

Kindly consider the entry below.
*Q* Name the reported Test A rating (disease control) value associated with the compound CCO/C(=C\Oc1ccc(C(=O)NC(C)C)cc1)C(F)(F)F [compound 101]
*A* 0%

###

Tested on: Phakopsora pachyrhizi
measurement-notes: Test A: test suspension sprayed on soybean seedlings one day before inoculation with Phakopsora pachyrhizi spores (Asian soybean rust), visual disease rating
Format: in vivo
measurement-setup: 10 ppm test suspension, 100 = 100% disease control, 0 = no control
Measured Test A rating (disease control) by item
Dear colleague, please return just the value in %, with no unit written.

CCOC(=O)c1cnn(Cc2ccc(O/C=C(\OCC(F)(F)F)C(F)(F)F)cc2)c1 [compound 298] = 0

*Q* Name the reported Test A rating (disease control) value associated with the molecule CCO/C(=C\Oc1ccc(Cn2ccc(C(=O)OC(C)(C)C)n2)cc1)C(F)(F)F [compound 253]
*A* 0

*Q* Name the reported Test A rating (disease control) value associated with the molecule C=CCOC(=O)c1cnn(Cc2ccc(O/C=C(\OCC)C(F)(F)F)cc2)c1 [compound 246]
*A* 100

*Q* Name the reported Test A rating (disease control) value associated with the molecule CCOC(=O)c1cnnn1Cc1ccc(O/C=C(\OCC)C(F)(F)F)cc1 [compound 120]
*A* 0

###

Tested on: Phakopsora pachyrhizi
measurement-notes: Test A: test suspension sprayed on soybean seedlings one day before inoculation with Phakopsora pachyrhizi spores (Asian soybean rust), visual disease rating
Assay type: in vivo
measurement-setup: 10 ppm test suspension, 100 = 100% disease control, 0 = no control
parameter: Test A rating (disease control) (%)
Dear colleague, please return just the value in %, with no unit written.

OC(O)(COc1ccc(OCC(O)(O)C(F)(F)F)cc1)C(F)(F)F = 77
CCO/C(=C\Oc1ccc(C=O)cc1)C(F)(F)F = 0
N#CCc1ccc(OCC2(C(F)(F)F)OCCO2)cc1 = 0
CCOC(=O)c1cn(Cc2ccc(O/C=C(\OCC)C(F)(F)F)cc2)nn1 = 100

*Q* Name the reported Test A rating (disease control) value associated with the compound CCO/C(=C\Oc1ccc(Cn2cccn2)cc1)C(F)(F)F
*A* 0

###

Measured Test A rating (disease control) by item
Tested on: Phakopsora pachyrhizi
measurement-notes: Test A: test suspension sprayed on soybean seedlings one day before inoculation with Phakopsora pachyrhizi spores (Asian soybean rust), visual disease rating
Assay type: in vivo
measurement-setup: 10 ppm test suspension, 100 = 100% disease control, 0 = no control
Dear colleague, please return just the value in %, with no unit written.

O=C(NCc1ccc(OCC2(C(F)(F)F)OCCO2)cc1)c1cccc(C(F)(F)F)c1 = 0
CCOC(=O)c1cnn(Cc2ccc(OCC3(C(F)(F)F)OC(=O)[C@@H](C)O3)cc2)c1 (some centres unmarked) = 93
CCO/C(=C\Oc1ccc(Cc2nc(C(=O)NCC(F)(F)F)cs2)cc1)C(F)(F)F = 100
CCO/C(=C\Oc1ccc(Cn2ncnc2SC)cc1)C(F)(F)F = 0
CCO/C(=C\Oc1ccc(Cn2cc(C(=O)OC)c3ccccc32)cc1)C(F)(F)F = 0

Kindly consider the entry below.
*Q* Name the reported Test A rating (disease control) value associated with the compound CCC#CCOC(=O)c1ccn(Cc2ccc(O/C=C(\OCC)C(F)(F)F)cc2)n1
*A* 100

###

System: Phakopsora pachyrhizi
measurement-notes: Test A: test suspension sprayed on soybean seedlings one day before inoculation with Phakopsora pachyrhizi spores (Asian soybean rust), visual disease rating
Type: in vivo
measurement-setup: 10 ppm test suspension, 100 = 100% disease control, 0 = no control
Measured Test A rating (disease control) by item
Dear colleague, please return just the value in %, with no unit written.

Known Test A rating (disease control) results, listed for orientation:
CCO/C(=C\Oc1ccc(Cc2ncc(C(=O)NCC3CC3)s2)cc1)C(F)(F)F = 73
CCO/C(=C\Oc1ccc(Cn2ccc(C(=O)O)n2)cc1)C(F)(F)F = 100
CCO/C(=C\Oc1ccc(CN2C(=O)c3ccccc3C2=O)cc1)C(F)(F)F = 0
CCOC(=O)C=CCOc1ccc(O/C=C(\OCC)C(F)(F)F)cc1 = 13
CCO/C(=C\Oc1ccc(Cn2ncnc2C(=O)OC)cc1)C(F)(F)F = 0

*Q* Name the reported Test A rating (disease control) value associated with the compound CCCCCCOC(=O)c1cnn(Cc2ccc(OCC3(C(F)(F)F)OCCO3)cc2)c1
*A* 99

*Q* Name the reported Test A rating (disease control) value associated with the compound O=C(OCCCCl)c1cnn(Cc2ccc(OCC3(C(F)(F)F)OCCO3)cc2)c1
*A* 100

*Q* Name the reported Test A rating (disease control) value associated with the compound CCO/C(=C\Oc1ccc(Cn2cc(C(=O)O)cn2)cc1)C(F)(F)F
*A* 100

*Q* Name the reported Test A rating (disease control) value associated with the compound O=C(OCC1CCCCC1)c1cnn(Cc2ccc(OCC3(C(F)(F)F)OCCO3)cc2)c1
*A* 100

*Q* Name the reported Test A rating (disease control) value associated with the compound CC(C)C(=O)NCc1ccc(OCC2(C(F)(F)F)OCCO2)cc1
*A* 0

*Q* Name the reported Test A rating (disease control) value associated with the compound CCO/C(=C\Oc1ccc(CNS(=O)(=O)CC)cc1)C(F)(F)F
*A* 0

*Q* Name the reported Test A rating (disease control) value associated with the compound CCO/C(=C\Oc1ccc(Cn2cc(C(=O)OCC3CC3)cn2)cc1)C(F)(F)F
*A* 100

*Q* Name the reported Test A rating (disease control) value associated with the compound CCOC(=O)c1cnn(C(C)c2ccc(OCC(O)(O)C(F)(F)F)cc2)c1 (stereo not drawn)
*A* 99

*Q* Name the reported Test A rating (disease control) value associated with the compound O=C(NCC1CC1)c1csc(Cc2ccc(OCC(O)(O)C(F)(F)F)cc2)n1
*A* 98

*Q* Name the reported Test A rating (disease control) value associated with the compound CC(C)OC(=O)c1cnn(Cc2ccc(OCC3(C(F)(F)F)OCCO3)cc2)c1
*A* 100

*Q* Name the reported Test A rating (disease control) value associated with the compound O=C(OCC1CCC1)c1cnn(Cc2ccc(OCC3(C(F)(F)F)OCCO3)cc2)c1
*A* 100

*Q* Name the reported Test A rating (disease control) value associated with the compound O=C(CC(F)(F)F)NCc1ccc(OCC2(C(F)(F)F)OCCO2)cc1
*A* 44

*Q* Name the reported Test A rating (disease control) value associated with the compound O=C(NCc1ccc(OCC2(C(F)(F)F)OCCO2)cc1)C1CC1
*A* 0

###

System: Phakopsora pachyrhizi
measurement-notes: Test A: test suspension sprayed on soybean seedlings one day before inoculation with Phakopsora pachyrhizi spores (Asian soybean rust), visual disease rating
Format: in vivo
measurement-setup: 10 ppm test suspension, 100 = 100% disease control, 0 = no control
Measured Test A rating (disease control) by item
Dear colleague, please return just the value in %, with no unit written.

Known Test A rating (disease control) results, listed for orientation:
CCO/C(=C\Oc1ccc(CN2CCC(C)(C)C2=O)cc1)C(F)(F)F = 0
OC(O)(CCc1ccc(Cn2ccc3ccccc32)cc1)C(F)(F)F = 0
CCO/C(=C\Oc1ccc(Cn2cc(C(=O)NC(C)C)cn2)cc1)C(F)(F)F = 0

Kindly consider the entry below.
*Q* Name the reported Test A rating (disease control) value associated with the molecule CCOC(=O)c1ccn(Cc2ccc(OCC3(C(F)(F)F)OCCO3)cc2)n1
*A* 98
